test system: Poliovirus 3; test: Antiviral activity against Poliovirus 3 infected in human HeLa-RW cells assessed as protection against virus-induced cytopathic effect after 3 to 4 days by crystal violet staining-based spectrophotometric method; assay type: functional, cell-based; settings: Enterovirus C
pEC50: −log10 of the molar value.
assayReadout: pEC50

The examples below pair each entry with its known result.
- smilesInput: "CC(C)n1ncc2c(C(=O)Nc3ccc(F)cc3)cc(C3CC3)nc21"
  pEC50: "< 4.60"
- smilesInput: "CC(C)n1ncc2c(C(=O)N3CCc4cccnc43)cc(-c3cccs3)nc21"
  pEC50: "< 5.00"

Recorded pEC50 (compound `CC(C)n1ncc2c(C(=O)Nc3c(F)cccc3F)cc(-c3cccs3)nc21` ): < 4.60

Documented pEC50 of `CC(C)n1ncc2c(NC(=O)c3ccc(F)cc3)cc(-c3cccs3)nc21` : < 5.00

Data point: `CC(C)n1ncc2c(C(=O)Nc3ccc(F)cc3)cc(-c3cccs3)nc21` ; pEC50 = < 4.60

pEC50 measured on `CC(C)n1ncc2c(C(=N)Nc3ccc(F)cc3)cc(-c3cccs3)nc21` = < 5.00

For reference, reported pEC50 for `CC(C)n1ccc2c(C(=O)Nc3cccnc3)cc(-c3cccs3)nc21` stands at < 5.00

---

pEC50 values by entry
system: Coxsackievirus B3; test: Antiviral activity against Coxsackievirus B3 infected in human HeLa-RW cells assessed as protection against virus-induced cytopathic effect after 3 to 4 days by crystal violet staining-based spectrophotometric method; assay type: functional, cell-based; conditions: Enterovirus B
pEC50: −log10 of the molar value.

See these solved cases before continuing.
- smilesInput: "CC(C)n1ccc2c(C(=O)Nc3ccc(F)cc3)cc(-c3cccs3)nc21"
  pEC50: 5.51
- smilesInput: "CC(C)n1ncc2c(C(=O)Nc3ccncc3)cc(-c3ccsc3)nc21"
  pEC50: "< 5.00"
- smilesInput: "CC(C)n1ncc2c(S(=O)(=O)Nc3ccc(F)cc3)cc(-c3cccs3)nc21"
  pEC50: "< 5.00"
- smilesInput: "CC(C)n1ncc2c(C(=O)Nc3ccncn3)cc(-c3cccs3)nc21"
  pEC50: 6.22
- smilesInput: "CC(C)n1ncc2c(C(=O)Nc3ccccn3)cc(C3CC3)nc21"
  pEC50: 5.33
- smilesInput: "CC(C)n1ccc2c(C(=O)Nc3ccncc3)cc(-c3cccs3)nc21"
  pEC50: "< 5.00"

Lookup result for `CC(C)n1ncc2c(C(=S)Nc3ccc(F)cc3)cc(-c3cccs3)nc21` ; measured pEC50: < 5.00

Entry `CC(C)n1ncc2c(NC(=O)c3cc(-c4cccs4)nc4c3cnn4C(C)C)cc(-c3cccs3)nc21` ; pEC50 = < 5.00

// field: pEC50; key: `CC(C)n1ncc2c(C(=O)N(C)c3ccccn3)cc(-c3cccs3)nc21` ; value = < 4.60

Entry `CC(C)n1nnc2c(C(=O)Nc3ccc(F)cc3)cc(-c3cccs3)nc21` ; pEC50 = < 5.00

---

system: Poliovirus 3; test: Antiviral activity against Poliovirus 3 infected in human HeLa-RW cells assessed as protection against virus-induced cytopathic effect after 3 to 4 days by crystal violet staining-based spectrophotometric method; type: functional, cell-based; conditions: Enterovirus C
assayReadout: EC50 (µM)
Only the number, expressed in µM, is required.

- smilesInput: "CC(C)n1ncc2c(C(=O)Nc3cccnc3)cc(-c3cccs3)nc21"
  reading: 10

Now, please, on to the next compound.
So, `CC(C)n1ncc2c(C(=O)N3CCc4cc(F)ccc43)cc(-c3cccs3)nc21` ? Its EC50 was 10
